# Experimental Protocol: Rodent Pharmacokinetics Studies
# Format: in vivo, rat
# Test Context: rat, plasma, 5 mg/kg; male Han Wistar rats; oral in 0.5% CMC/0.1% Tween-80, i.v. in 5% DMSO/10% solutol in saline; read-out: Bioavail, F (%)
Below, each entry is listed alongside its reported bioavailability.
Write your answer as a measured quantity: the number, then the unit.

Answered examples (2):
{"Compound": "Cc1cc(S(=O)(=O)NC2CCC(C)(O)CC2)ccc1-c1ccc(F)cc1F (single isomer, unassigned) [REF001, reference compound]", "Result": "50%"}
{"Compound": "C[C@]1(O)CC[C@@H](NS(=O)(=O)c2ccc(-c3ccc(F)cc3F)cc2)CC1 [ABD899, reference compound]", "Result": "50%"}

**Q:** Which bioavailability is listed for Cc1cc(S(=O)(=O)N[C@H]2CC[C@H](O)CC2)ccc1-c1ccc(F)cc1F [ABD735, reference compound] ?
**A:** 83%

**Q:** Which bioavailability is listed for O=S(=O)(N[C@H]1CC[C@H](O)CC1)c1ccc(-c2ncc(Cl)cc2Cl)cc1 [ABD836, reference compound] ?
**A:** 55%

###

# Experimental Protocol: Rodent Pharmacokinetics Studies
# Assay type: in vivo, rat
# Test Context: male Han Wistar rats; 1 mg/kg intravenous, 5% DMSO/10% solutol in saline
Below, each entry is listed alongside its reported i.v. AUC.
Answer in ng/mL/min, number only, no unit symbol.

{"Compound": "O=S(=O)(N[C@H]1CC[C@H](O)CC1)c1ccc(-c2ncc(Cl)cc2Cl)cc1 [ABD836, reference compound]", "Parameter": "i.v. AUC", "Unit Of Measure": "ng/mL/min", "Quantitative Result": 2142}
{"Compound": "Cc1cc(S(=O)(=O)N[C@H]2CC[C@H](O)CC2)ccc1-c1ccc(F)cc1F [ABD735, reference compound]", "Parameter": "i.v. AUC", "Unit Of Measure": "ng/mL/min", "Quantitative Result": 1081}

**Q:** Which i.v. AUC is listed for Cc1cc(S(=O)(=O)NC2CCC(C)(O)CC2)ccc1-c1ccc(F)cc1F (single isomer, unassigned) [REF001, reference compound] ?
**A:** 963

**Q:** Which i.v. AUC is listed for C[C@]1(O)CC[C@@H](NS(=O)(=O)c2ccc(-c3ccc(F)cc3F)cc2)CC1 [ABD899, reference compound] ?
**A:** 2133

###

# System Name: CYP2C19 (Homo sapiens)
# Construct: purchased Cypex Ltd, Dundee, Scotland UK
# Sequence (P33261 whole entry): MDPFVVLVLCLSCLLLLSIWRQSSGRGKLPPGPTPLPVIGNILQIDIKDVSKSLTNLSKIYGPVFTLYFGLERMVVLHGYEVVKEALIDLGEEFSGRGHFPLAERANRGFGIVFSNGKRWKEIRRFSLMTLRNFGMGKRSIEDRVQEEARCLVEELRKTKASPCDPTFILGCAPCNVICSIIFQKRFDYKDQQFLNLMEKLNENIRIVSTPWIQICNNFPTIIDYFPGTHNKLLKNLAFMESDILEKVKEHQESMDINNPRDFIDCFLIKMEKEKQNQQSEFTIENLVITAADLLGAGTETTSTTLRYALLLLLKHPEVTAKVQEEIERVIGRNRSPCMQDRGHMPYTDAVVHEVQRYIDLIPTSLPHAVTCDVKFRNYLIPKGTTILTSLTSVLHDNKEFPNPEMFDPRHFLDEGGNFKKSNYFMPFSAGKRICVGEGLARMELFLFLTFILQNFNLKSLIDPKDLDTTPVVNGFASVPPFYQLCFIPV
# Experimental Protocol: Human Cytochrome P450 Inhibition Assay (Bactosomes), CYP2C19
# Assay type: in vitro ADME
# Test Context: recombinant Bactosomes, probe substrate, 10 minutes at 37° C.
Below, each entry is listed alongside its reported IC50.

Answered examples (5):
{"Compound": "C[C@]1(O)CC[C@H](NS(=O)(=O)c2ccc(-c3ccc(C#N)cc3)c(F)c2)CC1", "System Name": "CYP2C19 (Homo sapiens)", "Result": "> 50 µM"}
{"Compound": "O=S(=O)(N[C@H]1CC[C@H](O)CC1)c1ccc(-c2ccc(F)cc2F)cc1 [ABD599, reference compound]", "System Name": "CYP2C19 (Homo sapiens)", "Result": "> 25 µM"}
{"Compound": "C[C@]1(O)CC[C@H](NS(=O)(=O)c2ccc(-c3ccc(C#N)cc3Cl)cc2)CC1", "System Name": "CYP2C19 (Homo sapiens)", "Result": "> 50 µM"}
{"Compound": "C[C@]1(O)CC[C@@H](NS(=O)(=O)c2ccc(-c3ccc(C#N)cc3)c(F)c2)CC1", "System Name": "CYP2C19 (Homo sapiens)", "Result": "> 50 µM"}
{"Compound": "C[C@]1(O)CC[C@H](NS(=O)(=O)c2ccc(-c3ncc(Cl)cc3C#N)cc2)CC1", "System Name": "CYP2C19 (Homo sapiens)", "Result": "> 50 µM"}

Consider the record given below.
**Q:** Which IC50 is listed for Cc1cc(S(=O)(=O)N[C@H]2CC[C@H](O)CC2)ccc1-c1ccc(F)cc1F [ABD735, reference compound] ?
**A:** > 25 µM

###

# System Name: CYP2D6 (Homo sapiens, UniProt P10635)
# Construct: purchased Cypex Ltd, Dundee, Scotland UK
# Sequence (P10635 whole entry): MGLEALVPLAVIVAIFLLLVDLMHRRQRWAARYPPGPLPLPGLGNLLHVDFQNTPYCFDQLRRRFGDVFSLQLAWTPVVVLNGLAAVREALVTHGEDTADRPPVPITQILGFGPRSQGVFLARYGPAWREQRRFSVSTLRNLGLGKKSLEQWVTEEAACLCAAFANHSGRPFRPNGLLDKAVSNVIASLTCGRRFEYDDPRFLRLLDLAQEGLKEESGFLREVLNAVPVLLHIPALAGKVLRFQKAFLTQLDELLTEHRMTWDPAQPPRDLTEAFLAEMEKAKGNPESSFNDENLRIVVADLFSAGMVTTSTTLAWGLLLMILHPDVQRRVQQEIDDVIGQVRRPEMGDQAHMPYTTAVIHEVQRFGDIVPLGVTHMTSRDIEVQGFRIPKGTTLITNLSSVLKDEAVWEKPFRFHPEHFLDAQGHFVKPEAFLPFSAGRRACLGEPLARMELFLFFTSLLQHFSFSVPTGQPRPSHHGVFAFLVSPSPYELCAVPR
# Experimental Protocol: Human Cytochrome P450 Inhibition Assay (Bactosomes), CYP2D6
# Type: in vitro ADME
# Test Context: recombinant Bactosomes, probe substrate, 10 minutes at 37° C.
Parameter: IC50

{"Molecule": "C[C@]1(O)CC[C@@H](NS(=O)(=O)c2ccc(-c3cc(F)c(F)cc3F)cc2)CC1", "IC50": "> 16 µM"}

**Q:** Which IC50 is listed for C[C@]1(O)CC[C@@H](NS(=O)(=O)c2ccc(-c3ccc(C#N)cc3)c(F)c2)CC1 ?
**A:** > 50 µM

**Q:** Which IC50 is listed for C[C@]1(O)CC[C@H](NS(=O)(=O)c2ccc(-c3ccc(C#N)cc3)c(F)c2)CC1 ?
**A:** > 50 µM

**Q:** Which IC50 is listed for C[C@]1(O)CC[C@H](NS(=O)(=O)c2ccc(-c3ccc(C#N)cc3Cl)cc2)CC1 ?
**A:** > 50 µM

**Q:** Which IC50 is listed for Cc1cc(S(=O)(=O)N[C@H]2CC[C@H](O)CC2)ccc1-c1ccc(F)cc1F [ABD735, reference compound] ?
**A:** > 25 µM

**Q:** Which IC50 is listed for C[C@]1(O)CC[C@H](NS(=O)(=O)c2ccc(-c3ncc(Cl)cc3C#N)cc2)CC1 ?
**A:** > 50 µM

###

# System Name: CYP1A2 (Homo sapiens, UniProt P05177)
# Construct: purchased Cypex Ltd, Dundee, Scotland UK
# Sequence (P05177 whole entry): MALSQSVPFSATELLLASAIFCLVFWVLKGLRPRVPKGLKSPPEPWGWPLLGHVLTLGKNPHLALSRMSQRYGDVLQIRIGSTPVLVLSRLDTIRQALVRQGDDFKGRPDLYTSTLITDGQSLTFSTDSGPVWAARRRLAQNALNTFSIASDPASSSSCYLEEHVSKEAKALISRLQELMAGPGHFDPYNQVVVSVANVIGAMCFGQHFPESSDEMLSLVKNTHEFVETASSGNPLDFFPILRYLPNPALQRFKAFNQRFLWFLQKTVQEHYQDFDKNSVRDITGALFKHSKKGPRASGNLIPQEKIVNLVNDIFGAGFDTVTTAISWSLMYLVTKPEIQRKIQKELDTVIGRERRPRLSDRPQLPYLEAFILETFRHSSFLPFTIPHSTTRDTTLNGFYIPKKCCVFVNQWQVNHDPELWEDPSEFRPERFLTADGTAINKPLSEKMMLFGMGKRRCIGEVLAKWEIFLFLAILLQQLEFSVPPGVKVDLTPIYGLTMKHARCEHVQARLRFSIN
# Experimental Protocol: Human Cytochrome P450 Inhibition Assay (Bactosomes), CYP1A2
# Assay type: in vitro ADME
# Test Context: recombinant Bactosomes, probe substrate, 10 minutes at 37° C.
Below, each entry is listed alongside its reported IC50.

{"Compound": "C[C@]1(O)CC[C@H](NS(=O)(=O)c2ccc(-c3ccc(C#N)cc3)c(F)c2)CC1", "Result": "> 50 µM"}

**Q:** Which IC50 is listed for Cc1cc(S(=O)(=O)N[C@H]2CC[C@H](O)CC2)ccc1-c1ccc(F)cc1F [ABD735, reference compound] ?
**A:** > 25 µM

**Q:** Which IC50 is listed for O=S(=O)(N[C@H]1CC[C@H](O)CC1)c1ccc(-c2ccc(F)cc2F)cc1 [ABD599, reference compound] ?
**A:** > 25 µM

**Q:** Which IC50 is listed for C[C@]1(O)CC[C@@H](NS(=O)(=O)c2ccc(-c3ccc(F)cc3F)cc2)CC1 [ABD899, reference compound] ?
**A:** > 25 µM
